# test method notes: Efflux ratio of apparent permeability in human Caco2 cells
# Assay type: ADME, cell-based
# condition label: Caco-2
measurement kind: efflux ratio
Respond numerically, and do not add a unit to the figure.

IN: Fill in: efflux ratio of `CN(C)CCCNc1ccn2ncc(-c3ccc4c(c3)OCO4)c2n1` is ___
OUT: 1.4

---

# test method notes: Kinetic solubility of compound
# Format: physicochemical
# condition label: read-out: Kinetic_solubility
measurement kind: solubility kinetic (µM)
Record the value in µM, omitting the unit from your answer.

IN: Fill in: solubility kinetic of `c1cc(CNc2ccn3ncc(-c4ccc5c(c4)OCO5)c3n2)ccn1` is ___
OUT: 30

---

# test method notes: Apparent permeability in human Caco2 cells
# Format: ADME, cell-based
# condition label: Caco-2
measurement kind: Papp (×10⁻⁶ cm/s)
Record the value in ×10⁻⁶ cm/s, omitting the unit from your answer.

IN: Fill in: Papp of `CN(C)CCCNc1ccn2ncc(-c3ccc4c(c3)OCO4)c2n1` is ___
OUT: 22.8

---

# test method notes: Metabolic stability in mouse liver microsomes assessed as intrinsic clearance
# Assay type: ADME, Microsome
# condition label: read-out: CLH
measurement kind: microsomal CLint (µL/min/mg)
Record the value in µL/min/mg, omitting the unit from your answer.

IN: Fill in: microsomal CLint of `CN(C)CCCNc1ccn2ncc(-c3ccc4c(c3)OCO4)c2n1` is ___
OUT: 62

---

# Organism: Homo sapiens
# test method notes: Selectivity index, ratio of IC50 for KDR (unknown origin) expressed in BaF3 cells to IC50 for RET V804M mutant (unknown origin) expressed […] cells
# Assay type: cell-based
measurement kind: Ratio IC50
Respond numerically, and do not add a unit to the figure.

The following compounds have reported results that may help.
NC(=O)c1ccc(-c2cnn3ccc(NCc4ccccn4)nc23)cc1 : 2
c1cc2c(cc1-c1cnn3ccc(NCC4CCNCC4)nc13)OCO2 : 2.6
NC(=O)c1ccc(-c2cnn3ccc(NCc4ccncc4)nc23)cc1 : 2.3
c1cc(CNc2ccn3ncc(-c4ccc5cn[nH]c5c4)c3n2)ccn1 : 1.9
NC(=O)c1ccc(-c2cnn3ccc(NCc4cccnc4)nc23)cc1 : 1.9
CN(C)CCCNc1ccn2ncc(-c3ccc4c(c3)OCO4)c2n1 : 76

IN: Fill in: Ratio IC50 of `CN(C)CCNc1ccn2ncc(-c3ccc4c(c3)OCO4)c2n1` is ___
OUT: 13

IN: Now consider `OCCNc1ccn2ncc(-c3ccc4c(c3)OCO4)c2n1` .
OUT: 1.5

IN: Now consider `c1ccc(CNc2ccn3ncc(-c4ccc5c(c4)OCO5)c3n2)nc1` .
OUT: 7.6

---

# Species: Homo sapiens
# test method notes: Selectivity index, ratio of IC50 for GST-tagged human RET expressed in baculovirus to IC50 for recombinant N-Terminal GST-tagged human RET V804M mutant (658 to end residues)
We label by threshold. Values of Ratio IC50 strictly beneath 5 are Y. Values of 5 and up are N.

NC(=O)c1ccc(-c2cnn3ccc(NCc4ccccn4)nc23)cc1 : N
c1cc2c(cc1-c1cnn3ccc(NCCN4CCCCC4)nc13)OCO2 : N
c1cc2c(cc1-c1cnn3ccc(NC4CCNCC4)nc13)OCO2 : Y
CN(C)CCNc1ccn2ncc(-c3ccc4c(c3)OCO4)c2n1 : N
c1ccc(-c2cnn3ccc(NCc4ccncc4)nc23)cc1 : Y
CN(C)CCCNc1ccn2ncc(-c3ccc4c(c3)OCO4)c2n1 : N
CC(=O)Nc1ccc(-c2cnn3ccc(NCc4ccncc4)nc23)cc1 : Y
c1cc(Nc2ccn3ncc(-c4ccc5c(c4)OCO5)c3n2)ccn1 : Y

IN: Given `c1ccc(CNc2ccn3ncc(-c4ccc5c(c4)OCO5)c3n2)nc1` , is recorded Ratio IC50 strictly lower than 5?
OUT: N

IN: Now consider `NC(=O)c1ccc(-c2cnn3ccc(NCc4cccnc4)nc23)cc1` .
OUT: N

IN: Now consider `OCCNc1ccn2ncc(-c3ccc4c(c3)OCO4)c2n1` .
OUT: N

IN: Now consider `CN(C)C(=O)c1ccc(-c2cnn3ccc(NCc4ccncc4)nc23)cc1` .
OUT: Y

---

# study target: Proto-oncogene tyrosine-protein kinase receptor Ret (Homo sapiens, UniProt P07949, V804M)
# Sequence (P07949 29-1114 V804M limits assumed): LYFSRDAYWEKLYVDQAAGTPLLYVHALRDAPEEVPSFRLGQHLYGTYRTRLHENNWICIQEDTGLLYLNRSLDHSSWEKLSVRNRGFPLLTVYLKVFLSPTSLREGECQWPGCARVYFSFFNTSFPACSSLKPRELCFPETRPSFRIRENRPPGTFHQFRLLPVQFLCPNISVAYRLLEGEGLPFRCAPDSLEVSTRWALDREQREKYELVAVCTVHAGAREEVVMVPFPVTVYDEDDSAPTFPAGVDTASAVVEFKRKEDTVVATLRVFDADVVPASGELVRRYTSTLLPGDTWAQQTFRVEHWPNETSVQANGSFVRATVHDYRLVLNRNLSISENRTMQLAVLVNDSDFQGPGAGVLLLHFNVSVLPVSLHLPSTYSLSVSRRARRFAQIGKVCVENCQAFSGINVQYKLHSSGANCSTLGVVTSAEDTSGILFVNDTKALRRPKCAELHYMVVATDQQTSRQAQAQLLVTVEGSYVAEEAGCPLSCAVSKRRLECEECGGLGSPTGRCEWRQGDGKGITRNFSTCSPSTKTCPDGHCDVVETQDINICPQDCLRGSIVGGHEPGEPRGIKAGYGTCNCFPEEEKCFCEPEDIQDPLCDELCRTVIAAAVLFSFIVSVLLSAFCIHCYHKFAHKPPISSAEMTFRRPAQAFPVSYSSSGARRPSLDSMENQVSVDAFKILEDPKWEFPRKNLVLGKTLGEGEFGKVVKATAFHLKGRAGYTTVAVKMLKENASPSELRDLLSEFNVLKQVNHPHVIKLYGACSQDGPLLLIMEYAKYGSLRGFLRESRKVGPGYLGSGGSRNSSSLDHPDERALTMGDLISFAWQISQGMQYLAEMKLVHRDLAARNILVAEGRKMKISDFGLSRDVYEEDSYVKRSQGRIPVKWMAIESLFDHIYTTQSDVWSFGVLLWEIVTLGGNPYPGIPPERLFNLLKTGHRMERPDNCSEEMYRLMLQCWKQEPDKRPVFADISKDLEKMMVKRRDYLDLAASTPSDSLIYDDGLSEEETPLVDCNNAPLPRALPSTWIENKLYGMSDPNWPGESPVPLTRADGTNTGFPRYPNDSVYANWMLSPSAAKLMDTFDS
pIC50: −log10 of the molar value.
Consider the reported pIC50 of an entry and match it to a band in lo: < 6; mid: ≥ 6 and < 7; hi: ≥ 7

Use these answered entries as a reference point.
NC(=O)c1cccc(-c2cnn3ccc(NCc4ccncc4)nc23)c1 : lo
c1ccc(CNc2ccn3ncc(-c4ccc5c(c4)OCO5)c3n2)nc1 : hi
CC(=O)Nc1ccc(-c2cnn3ccc(NCc4ccncc4)nc23)cc1 : lo
NC(=O)c1ccc(-c2cnn3ccc(NCc4cccnc4)nc23)cc1 : hi

IN: Hello team, could you let me know which band the following compound falls into: `c1cc(Nc2ccn3ncc(-c4ccc5c(c4)OCO5)c3n2)ccn1`
OUT: lo

IN: Now consider `c1cc2c(cc1-c1cnn3ccc(NCC4CCNCC4)nc13)OCO2` .
OUT: mid

IN: Now consider `NS(=O)(=O)c1ccc(-c2cnn3ccc(NCc4ccncc4)nc23)cc1` .
OUT: mid

IN: Now consider `CN(C)CCCNc1ccn2ncc(-c3ccc4c(c3)OCO4)c2n1` .
OUT: hi

IN: Now consider `c1cc(CNc2ccn3ncc(-c4ccc5cn[nH]c5c4)c3n2)ccn1` .
OUT: mid

IN: Now consider `O=C(O)c1ccc(-c2cnn3ccc(NCc4ccncc4)nc23)cc1` .
OUT: mid

IN: Now consider `CC(=O)Nc1cccc(-c2cnn3ccc(NCc4ccncc4)nc23)c1` .
OUT: lo

IN: Now consider `NC(=O)c1ccc(-c2cnn3ccc(NCc4ccccn4)nc23)cc1` .
OUT: hi

IN: Now consider `NC(=O)c1ccc(-c2cnn3ccc(NCc4ccncc4)nc23)cc1` .
OUT: hi

IN: Now consider `c1cc(CNc2ccn3ncc(-c4ccc5c(c4)OCO5)c3n2)ccn1` .
OUT: mid

IN: Now consider `CN(C)CCNc1ccn2ncc(-c3ccc(C(N)=O)cc3)c2n1` .
OUT: mid

IN: Now consider `CN(C)C(=O)c1ccc(-c2cnn3ccc(NCc4ccncc4)nc23)cc1` .
OUT: lo

IN: Now consider `c1ccc(CNc2ccn3ncc(-c4ccc5c(c4)OCO5)c3n2)cc1` .
OUT: lo

---

# Species: Homo sapiens
# test method notes: Selectivity index, ratio of IC50 for KDR (unknown origin) expressed in BaF3 cells to IC50 for RET V804M mutant (unknown origin) expressed […] cells
# Format: cell-based
measurement kind: Ratio IC50
Respond numerically, and do not add a unit to the figure.

The following compounds have reported results that may help.
c1cc(CNc2ccn3ncc(-c4ccc5c(c4)OCO5)c3n2)ccn1 : 6.2
CN(C)CCNc1ccn2ncc(-c3ccc(C(N)=O)cc3)c2n1 : 0.83

IN: Fill in: Ratio IC50 of `NS(=O)(=O)c1ccc(-c2cnn3ccc(NCc4ccncc4)nc23)cc1` is ___
OUT: 1

---

# Species: Homo sapiens
# test method notes: Selectivity index, ratio of IC50 for GST-tagged human RET expressed in baculovirus to IC50 for recombinant N-Terminal GST-tagged human RET V804M mutant (658 to end residues)
measurement kind: Ratio IC50
Respond numerically, and do not add a unit to the figure.

NC(=O)c1ccc(-c2cnn3ccc(NCc4ccncc4)nc23)cc1 : 3.7
c1ccc(CNc2ccn3ncc(-c4ccc5c(c4)OCO5)c3n2)cc1 : 0.16
c1cc(CNc2ccn3ncc(-c4ccc5c(c4)OCO5)c3n2)ccn1 : 0.64
O=C(O)c1ccc(-c2cnn3ccc(NCc4ccncc4)nc23)cc1 : 1.2
CS(=O)(=O)Nc1ccc(-c2cnn3ccc(NCc4ccncc4)nc23)cc1 : 0.28

IN: Fill in: Ratio IC50 of `CN(C)CCNc1ccn2ncc(-c3ccc(C(N)=O)cc3)c2n1` is ___
OUT: 4.7

IN: Now consider `c1cc2c(cc1-c1cnn3ccc(NCC4CCNCC4)nc13)OCO2` .
OUT: 1.2

IN: Now consider `CC(=O)Nc1cccc(-c2cnn3ccc(NCc4ccncc4)nc23)c1` .
OUT: 4

IN: Now consider `NS(=O)(=O)c1ccc(-c2cnn3ccc(NCc4ccncc4)nc23)cc1` .
OUT: 1.3

IN: Now consider `c1cc(CNc2ccn3ncc(-c4ccc5cn[nH]c5c4)c3n2)ccn1` .
OUT: 18

---

Lab note: pIC50 readings collected with Proto-oncogene tyrosine-protein kinase receptor Ret (Homo sapiens, UniProt P07949, V804M) for the following compounds.
To interpret pIC50, take it as minus log10 of a concentration measured in moles per litre.

CN(C)CCNc1ccn2ncc(-c3ccc4c(c3)OCO4)c2n1 : 7.04
OCCNc1ccn2ncc(-c3ccc4c(c3)OCO4)c2n1 : 6.89
c1cc2c(cc1-c1cnn3ccc(NC4CCNCC4)nc13)OCO2 : 6.06
c1ccc(-c2cnn3ccc(NCc4ccncc4)nc23)cc1 : 5.94
CS(=O)(=O)Nc1ccc(-c2cnn3ccc(NCc4ccncc4)nc23)cc1 : 5.82

IN: Fill in: pIC50 of `c1cc2c(cc1-c1cnn3ccc(NCCN4CCCCC4)nc13)OCO2` is ___
OUT: 6.18
